Measured % of control (catalytic activity at 2-fold IC50) by item
Test system: CYP3A
Assay: CYP3A catalytic activity (erythromycin N-demethylation) in possum liver microsomes
Conditions: possum; compound at estimated 2-fold IC50 (5 µM where none reported)
reported_endpoint: % of control (catalytic activity at 2-fold IC50)

INSERT INTO assay_data (molecule, recorded_value) VALUES
  ('O=C1C[C@@H](c2ccc(O)cc2)Oc2cc(O)cc(O)c21', '175 % of control'),
  ('CCc1oc2ccccc2c1C(=O)c1cc(Br)c(O)c(Br)c1', '80 % of control'),
  ('C[C@]12CC[C@H](O)CC1=CC[C@@H]1[C@@H]2CC[C@]2(C)C(n3cnc4ccccc43)=CC[C@@H]12', '83 % of control'),
  ('O=c1cc(-c2ccccc2)oc2cc(O)ccc12 [7-Hydroxyflavone]', '95 % of control'),
  ('O=C1c2ccccc2C(=O)c2c1ccc(O)c2O', '84 % of control'),
  ('CC[C@H]1OC(=O)[C@H](C)[C@@H](O[C@H]2C[C@@](C)(OC)[C@@H](O)[C@H](C)O2)[C@H](C)[C@@H](O[C@@H]2O[C@H](C)C[C@H](N(C)C)[C@H]2O)[C@](C)(OC)C[C@@H](C)C(=O)[C@H](C)[C@@H](O)[C@]1(C)O', '103 % of control'),
  ('C[C@@H]1O[C@@H](O[C@H]2[C@H](Oc3cc(O)c(C(=O)CCc4ccc(O)cc4)c(O)c3)O[C@H](CO)[C@@H](O)[C@@H]2O)[C@H](O)[C@H](O)[C@H]1O [Naringin Dihydrochalcone]', '92 % of control');

* * *

// values below are reported Catalytic activity at 2-fold IC50
Test system: CYP3A
Conditions: avian; compound at estimated 2-fold IC50 (5 µM where none reported)
reported_endpoint: Catalytic activity at 2-fold IC50 (nmol/mg/min)

INSERT INTO assay_data (molecule, value_units, recorded_value) VALUES
  ('CC[C@H]1OC(=O)[C@H](C)[C@@H](O[C@H]2C[C@@](C)(OC)[C@@H](O)[C@H](C)O2)[C@H](C)[C@@H](O[C@@H]2O[C@H](C)C[C@H](N(C)C)[C@H]2O)[C@](C)(OC)C[C@@H](C)C(=O)[C@H](C)[C@@H](O)[C@]1(C)O [Clarithromycin]', 'nmol/mg/min', 0.41),
  ('O=c1cc(-c2ccccc2)oc2cc(O)ccc12 [7-Hydroxyflavone]', 'nmol/mg/min', 0.42),
  ('CCc1oc2ccccc2c1C(=O)c1cc(Br)c(O)c(Br)c1 [Benzbromarone]', 'nmol/mg/min', 0.34),
  ('C=C[C@@H]1C2=CCOC(=O)C2=CO[C@H]1O[C@@H]1O[C@H](CO)[C@@H](O)[C@H](O)[C@H]1O [Gentiopicroside]', 'nmol/mg/min', 0.32),
  ('C/C1=C/CC[C@H](C)C(=O)C[C@@H](C(C)C)C(=O)C1 [Curdione]', 'nmol/mg/min', 0.41),
  ('Nc1ccc(S(=O)(=O)Nc2ccnn2-c2ccccc2)cc1 [Sulfaphenazole]', 'nmol/mg/min', 0.33),
  ('O=C1c2ccccc2C(=O)c2c1ccc(O)c2O [Alizarin]', 'nmol/mg/min', 0.30),
  ('COc1ccc(/C=C/c2cc(O)cc(O)c2)cc1O [Rhapontigenin]', 'nmol/mg/min', 0.30),
  ('C[C@]12CC[C@H](O)CC1=CC[C@@H]1[C@@H]2CC[C@]2(C)C(n3cnc4ccccc43)=CC[C@@H]12 [Galeterone]', 'nmol/mg/min', 0.36),
  ('CC(=O)c1ccccc1O [2''-Hydroxyacetophenone]', 'nmol/mg/min', 0.36);

* * *

System: CYP3A
Test: CYP3A catalytic activity (erythromycin N-demethylation) in possum liver microsomes
Conditions: possum; compound at estimated 2-fold IC50 (5 µM where none reported)
Please note: 1.0 applies when Catalytic activity at 2-fold IC50 is 0.4 nmol/mg/min or greater, and 0.0 applies otherwise.

INSERT INTO measurements (compound, tested_target, qualitative_label) VALUES
  ('C=C[C@@H]1C2=CCOC(=O)C2=CO[C@H]1O[C@@H]1O[C@H](CO)[C@@H](O)[C@H](O)[C@H]1O [Gentiopicroside]', 'CYP3A', 0.0),
  ('C/C1=C/CC[C@H](C)C(=O)C[C@@H](C(C)C)C(=O)C1 [Curdione]', 'CYP3A', 0.0),
  ('O=C1c2ccccc2C(=O)c2c1ccc(O)c2O [Alizarin]', 'CYP3A', 0.0),
  ('C[C@@H]1O[C@@H](O[C@H]2[C@H](Oc3cc(O)c(C(=O)CCc4ccc(O)cc4)c(O)c3)O[C@H](CO)[C@@H](O)[C@@H]2O)[C@H](O)[C@H](O)[C@H]1O [Naringin Dihydrochalcone]', 'CYP3A', 0.0),
  ('O=c1cc(-c2ccccc2)oc2cc(O)ccc12 [7-Hydroxyflavone]', 'CYP3A', 0.0),
  ('Nc1ccc(S(=O)(=O)Nc2ccnn2-c2ccccc2)cc1 [Sulfaphenazole]', 'CYP3A', 0.0),
  ('CC(=O)c1ccccc1O [2''-Hydroxyacetophenone]', 'CYP3A', 0.0),
  ('O=C1C[C@@H](c2ccc(O)cc2)Oc2cc(O)cc(O)c21 [Naringenin]', 'CYP3A', 1.0),
  ('C[C@]12CC[C@H](O)CC1=CC[C@@H]1[C@@H]2CC[C@]2(C)C(n3cnc4ccccc43)=CC[C@@H]12 [Galeterone]', 'CYP3A', 0.0),
  ('CC[C@H]1OC(=O)[C@H](C)[C@@H](O[C@H]2C[C@@](C)(OC)[C@@H](O)[C@H](C)O2)[C@H](C)[C@@H](O[C@@H]2O[C@H](C)C[C@H](N(C)C)[C@H]2O)[C@](C)(OC)C[C@@H](C)C(=O)[C@H](C)[C@@H](O)[C@]1(C)O [Clarithromycin]', 'CYP3A', 1.0),
  ('CCc1oc2ccccc2c1C(=O)c1cc(Br)c(O)c(Br)c1 [Benzbromarone]', 'CYP3A', 0.0);

* * *

Recorded measurements of UGT2B4 catalytic activity at 2-fold IC50, one per entry
Tested on: UGT2B
Experiment: p-nitrophenol glucuronidation activity in pooled human liver microsomes
reported_endpoint: UGT2B4 catalytic activity at 2-fold IC50

INSERT INTO assay_data (compound, reported_endpoint, recorded_value) VALUES
  ('O=c1cc(-c2ccccc2)oc2cc(O)c(O)c(O)c12 [Baicalein]', 'UGT2B4 catalytic activity at 2-fold IC50', 3.95),
  ('O=C(/C=C/C=C/c1ccc2c(c1)OCO2)N1CCCCC1 [Piperine]', 'UGT2B4 catalytic activity at 2-fold IC50', 3.62);

* * *

In this section we review reported Percent control catalytic activity at estimated IC50 values for a set of compounds.
Tested on: CYP3A
Assay: CYP3A catalytic activity (erythromycin N-demethylation) in mouse liver microsomes
Conditions: mouse liver microsomes; initial screen n=1; compounds without reported IC50 at 1 µM
reported_endpoint: Percent control catalytic activity at estimated IC50 (percent control)

INSERT INTO results (compound, recorded_value) VALUES
  ('CC(=O)N1CCN(c2ccc(OCC3COC(Cn4ccnc4)(c4ccc(Cl)cc4Cl)O3)cc2)CC1 (stereo not shown)', 78),
  ('O=c1cc(-c2ccccc2)oc2cc(O)ccc12 [7-Hydroxyflavone]', 97),
  ('CC(C)=CCC[C@](C)(O[C@@H]1O[C@H](CO)[C@@H](O)[C@H](O)[C@H]1O)[C@H]1CC[C@]2(C)[C@@H]1[C@H](O)C[C@@H]1[C@@]3(C)CC[C@H](O)C(C)(C)[C@@H]3[C@@H](O)C[C@]12C [Ginsenoside F1]', 82),
  ('C=CCSCC=C [Diallyl sulfide]', 72);

* * *

Test system: CYP3A
Assay: CYP3A catalytic activity (erythromycin N-demethylation) in possum liver microsomes
Conditions: possum liver microsomes; initial screen n=1; compounds without reported IC50 at 1 µM
Counter-ions that a name gives are not always drawn.
Overview of reported Percent control catalytic activity at estimated IC50 across a group of molecules:
reported_endpoint: Percent control catalytic activity at estimated IC50 (percent control)

INSERT INTO results (molecule, tested_target, recorded_value) VALUES
  ('O=C(/C=C/C=C/c1ccc2c(c1)OCO2)N1CCCCC1', 'CYP3A', 127),
  ('COc1cc2c(cc1OC)[C@@H](Cc1ccc(Oc3cc(C[C@@H]4c5cc(OC)c(OC)cc5CCN4C)ccc3O)cc1)N(C)CC2', 'CYP3A', 108),
  ('O=c1cc(-c2ccc(O)cc2)oc2cc(O)cc(O)c12', 'CYP3A', 94),
  ('CC(C)=CCC[C@](C)(O[C@@H]1O[C@H](CO)[C@@H](O)[C@H](O)[C@H]1O)[C@H]1CC[C@]2(C)[C@@H]1[C@H](O)C[C@@H]1[C@@]3(C)CC[C@H](O)C(C)(C)[C@@H]3[C@@H](O)C[C@]12C [Ginsenoside F1]', 'CYP3A', 120),
  ('C[C@@H]1CC[C@H]2C(C)(C)[C@H]3C[C@@]12CC[C@@]3(C)O', 'CYP3A', 107),
  ('CCc1oc2ccccc2c1C(=O)c1cc(Br)c(O)c(Br)c1', 'CYP3A', 83),
  ('C[C@@H]1O[C@@H](O[C@H]2[C@H](Oc3cc(O)c(C(=O)CCc4ccc(O)cc4)c(O)c3)O[C@H](CO)[C@@H](O)[C@@H]2O)[C@H](O)[C@H](O)[C@H]1O [Naringin Dihydrochalcone]', 'CYP3A', 111),
  ('O=C1c2ccc(O)cc2C(=O)c2ccc(O)cc21 [2,6-Dihydroxyanthraquinone]', 'CYP3A', 97),
  ('OC(Cn1cncn1)(Cn1cncn1)c1ccc(F)cc1F', 'CYP3A', 107),
  ('O=C(O)/C=C/c1ccc(Cn2ccnc2)cc1', 'CYP3A', 97),
  ('CC[C@H]1OC(=O)[C@H](C)[C@@H](O[C@H]2C[C@@](C)(OC)[C@@H](O)[C@H](C)O2)[C@H](C)[C@@H](O[C@@H]2O[C@H](C)C[C@H](N(C)C)[C@H]2O)[C@](C)(OC)C[C@@H](C)C(=O)[C@H](C)[C@@H](O)[C@]1(C)O', 'CYP3A', 90),
  ('O=C(O)[C@H](O)Cc1ccc(O)c(O)c1', 'CYP3A', 113),
  ('CC12CC3CC(C)(C1)CC(N)(C3)C2 [Memantine HCl]', 'CYP3A', 117),
  ('C=CCSCC=C [Diallyl sulfide]', 'CYP3A', 103),
  ('Cl.O=C(O)/C=C/c1ccc(Cn2ccnc2)cc1 [Ozagrel HCl]', 'CYP3A', 121),
  ('Cc1ccc(-c2c(-c3nn(C)c4ncnc(N5CC[C@H](N6CCCCC6)C5)c34)cnn2C)cc1', 'CYP3A', 98),
  ('O=C([O-])C(O)Cc1ccc(O)c(O)c1.[Na+] (stereo not drawn) [Sodium Danshensu]', 'CYP3A', 116),
  ('Nc1ccc(S(=O)(=O)Nc2ccnn2-c2ccccc2)cc1', 'CYP3A', 93),
  ('C/C1=C/CC[C@H](C)C(=O)C[C@@H](C(C)C)C(=O)C1', 'CYP3A', 92),
  ('C[C@]12CC[C@H](O)CC1=CC[C@@H]1[C@@H]2CC[C@]2(C)C(n3cnc4ccccc43)=CC[C@@H]12', 'CYP3A', 76),
  ('COc1c(OC)c2occc2c2oc(=O)ccc12', 'CYP3A', 133),
  ('CC(=O)N1CCN(c2ccc(OCC3COC(Cn4ccnc4)(c4ccc(Cl)cc4Cl)O3)cc2)CC1 (stereo not drawn)', 'CYP3A', 76),
  ('COc1cc2c(=O)c3c(O)c([C@@H]4O[C@H](CO[C@@H]5OC[C@](O)(CO)[C@H]5O)[C@@H](O)[C@H](O)[C@H]4O)c(O)cc3oc2cc1O', 'CYP3A', 102),
  ('COc1cc(C2Oc3ccc([C@H]4Oc5cc(O)cc(O)c5C(=O)[C@@H]4O)cc3OC2CO)ccc1O (stereo partly drawn)', 'CYP3A', 73),
  ('O=C1c2ccccc2C(=O)c2c1ccc(O)c2O', 'CYP3A', 70),
  ('CCc1ccc(CCOc2ccc(CC3SC(=O)NC3=O)cc2)nc1 (stereo not drawn) [Pioglitazone HCl]', 'CYP3A', 99),
  ('CC(=O)O[C@H](CC=C(C)C)C1=CC(=O)c2c(O)ccc(O)c2C1=O', 'CYP3A', 128),
  ('O=c1cc(-c2ccccc2)oc2cc(O)ccc12 [7-Hydroxyflavone]', 'CYP3A', 81),
  ('CC(=O)O[C@H]1CC[C@@]2(C)C(=CC[C@@H]3[C@@H]2CC[C@]2(C)C(c4cccnc4)=CC[C@@H]32)C1 [Abiraterone Acetate]', 'CYP3A', 128),
  ('O=c1c(O)c(-c2ccccc2)oc2cc(O)cc(O)c12', 'CYP3A', 115),
  ('CC(=O)c1ccccc1O [2''-Hydroxyacetophenone]', 'CYP3A', 108),
  ('CCC(C)n1ncn(-c2ccc(N3CCN(c4ccc(OCC5COC(Cn6cncn6)(c6ccc(Cl)cc6Cl)O5)cc4)CC3)cc2)c1=O (stereo not drawn)', 'CYP3A', 141),
  ('O=[N+]([O-])c1cn(C(c2ccccc2)(c2ccccc2)c2ccccc2)cn1', 'CYP3A', 129);
